testedSystem: P2RY13 (Homo sapiens)
Construct: purchased Promega (in-house HiBiT-GPCR construct library, NanoBRET)
Sequence (Q9BPV8 whole entry, one chain of several): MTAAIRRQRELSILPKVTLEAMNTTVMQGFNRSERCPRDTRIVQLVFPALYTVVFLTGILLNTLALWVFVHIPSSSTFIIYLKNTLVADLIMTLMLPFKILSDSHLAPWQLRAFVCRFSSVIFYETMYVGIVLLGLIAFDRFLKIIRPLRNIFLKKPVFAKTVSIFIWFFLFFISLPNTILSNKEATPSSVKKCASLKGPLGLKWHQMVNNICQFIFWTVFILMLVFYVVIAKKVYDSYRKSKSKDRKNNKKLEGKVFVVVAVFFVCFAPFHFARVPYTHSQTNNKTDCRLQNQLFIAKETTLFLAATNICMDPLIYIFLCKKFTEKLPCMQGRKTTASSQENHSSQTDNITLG
testProtocol: NanoBRET screen HiBiT-P2RY13 in HEK293
Format: binding
appliedConditions: P2RY13; tracer 1μM
Experimental: Each tracer candidate was screened across the entire library of HiBiT-GPCR constructs using NanoBRET as the detection modality. As depicted in Figure 4A, the specificity of interactions was evaluated through decrease in BRET due to competitive displacement of a bound tracer by excess parental compound. Each tracer was analyzed for binding to each HiBiT-GPCR fusion in the absence and in the presence of competing parental compound. […]
Parameter threshold = 1. Response is TRUE when NanoBRET Fold Response meets or exceeds it, else FALSE.

Observe how each entry below is paired with its result.
>>> discretelabel("Cc1nc2n(c(=O)c1CCN1CCC(c3noc4cc(F)ccc34)CC1)CCCC2OC(=O)NCCOCCOCCOCCOCCNC(=O)CCc1ccc2n1[B-](F)(F)[N+]1=C(c3ccc[nH]3)C=CC1=C2 (stereo not drawn)")
"FALSE"
>>> discretelabel("COc1ccccc1N1CCN(CCCCN2C(=O)c3ccc(CNC(=O)CCOCCNC(=O)c4ccc(CNC(=O)CCc5ccc6n5[B-](F)(F)[N+]5=C(c7ccc[nH]7)C=CC5=C6)cc4)cc3C2=O)CC1")
"FALSE"
>>> discretelabel("CC(C)N(CC[C@H](c1ccccc1)c1cc(CCNC(=O)c2ccc(CNC(=O)CCc3ccc4n3[B-](F)(F)[N+]3=C(c5ccc[nH]5)C=CC3=C4)cc2)ccc1O)C(C)C")
"FALSE"
>>> discretelabel("CC(C)N(CC[C@H](c1ccccc1)c1cc(CCNC(=O)CCOCCOCCOCCOCCNC(=O)CCc2ccc3n2[B-](F)(F)[N+]2=C(c4ccc[nH]4)C=CC2=C3)ccc1O)C(C)C")
"TRUE"
>>> discretelabel("CCCn1c(=O)c2[nH]c(-c3ccc(OCC(=O)NCCNC(=O)CCOCCNC(=O)c4ccc(CNC(=O)CCc5ccc6n5[B-](F)(F)[N+]5=C(c7ccc[nH]7)C=CC5=C6)cc4)cc3)nc2n(CCC)c1=O")
"TRUE"

Task: Please indicate if the recorded NanoBRET Fold Response for O=C(CCOCCOCCOCCOCCNC(=O)CCc1ccc2n1[B-](F)(F)[N+]1=C(c3ccc[nH]3)C=CC1=C2)NCCCN1CCN(C2=Nc3ccccc3Oc3ccc(Cl)cc32)CC1 meets or exceeds 1.
Output: FALSE

====

testedSystem: SSTR5 (Homo sapiens, UniProt P35346)
Construct: purchased Promega (in-house HiBiT-GPCR construct library, NanoBRET)
Sequence (P35346 whole entry): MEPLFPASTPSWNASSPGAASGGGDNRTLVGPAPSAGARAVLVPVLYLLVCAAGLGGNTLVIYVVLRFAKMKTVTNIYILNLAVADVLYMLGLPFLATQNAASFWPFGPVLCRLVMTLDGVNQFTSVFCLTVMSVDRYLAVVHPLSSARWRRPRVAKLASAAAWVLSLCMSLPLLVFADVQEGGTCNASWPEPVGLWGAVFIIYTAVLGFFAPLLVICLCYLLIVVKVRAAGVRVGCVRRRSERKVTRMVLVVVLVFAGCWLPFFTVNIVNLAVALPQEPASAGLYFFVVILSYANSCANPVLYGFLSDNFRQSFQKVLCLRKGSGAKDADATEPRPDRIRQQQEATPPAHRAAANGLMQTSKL
testProtocol: NanoBRET screen HiBiT-SSTR5 in HEK293
Type: binding
appliedConditions: SSTR5; tracer 1μM
# condition met = NanoBRET Fold Response below 1 (exclusive); condition not met = NanoBRET Fold Response at/above 1

Some entries whose results are on file:
>>> discretelabel("CC(C)N(CC[C@H](c1ccccc1)c1cc(CCNC(=O)CCOCCOCCOCCOCCNC(=O)CCc2ccc3n2[B-](F)(F)[N+]2=C(c4ccc[nH]4)C=CC2=C3)ccc1O)C(C)C")
"condition not met"
>>> discretelabel("COc1ccccc1N1CCN(CCCCN2C(=O)c3ccc(CNC(=O)CCOCCOCCOCCOCCNC(=O)CCc4ccc5n4[B-](F)(F)[N+]4=C(c6ccc[nH]6)C=CC4=C5)cc3C2=O)CC1")
"condition not met"
>>> discretelabel("COc1ccccc1N1CCN(CCCCN2C(=O)c3ccc(CNC(=O)CCOCCNC(=O)c4ccc(CNC(=O)CCc5ccc6n5[B-](F)(F)[N+]5=C(c7ccc[nH]7)C=CC5=C6)cc4)cc3C2=O)CC1")
"condition not met"

Task: State whether 1 exceeds NanoBRET Fold Response recorded for CC(C)N(CC[C@H](c1ccccc1)c1cc(CCNC(=O)c2ccc(CNC(=O)CCc3ccc4n3[B-](F)(F)[N+]3=C(c5ccc[nH]5)C=CC3=C4)cc2)ccc1O)C(C)C .
Output: condition not met

Task: Another: O=C(CCOCCOCCOCCOCCNC(=O)CCc1ccc2n1[B-](F)(F)[N+]1=C(c3ccc[nH]3)C=CC1=C2)NCCCN1CCN(C2=Nc3ccccc3Oc3ccc(Cl)cc32)CC1
Output: condition not met

Task: Record: O=C(CCc1ccc2n1[B-](F)(F)[N+]1=C(c3ccc[nH]3)C=CC1=C2)NCc1ccc(C(=O)NCCOCCC(=O)N[C@@H]2CC[C@@]3(O)[C@H]4Cc5ccc(O)c6c5[C@@]3(CCN4CC3CC3)[C@H]2O6)cc1 [Naltrexone-3-NB590]
Output: condition met

Task: Next: O=C(CCc1ccc2n1[B-](F)(F)[N+]1=C(c3ccc[nH]3)C=CC1=C2)NCCOCCOCCNC(=O)OCCOCCN1CCN(C2=Nc3ccccc3Sc3ccccc32)CC1
Output: condition met
